B1: library; numbered along this chain (parent)
chain: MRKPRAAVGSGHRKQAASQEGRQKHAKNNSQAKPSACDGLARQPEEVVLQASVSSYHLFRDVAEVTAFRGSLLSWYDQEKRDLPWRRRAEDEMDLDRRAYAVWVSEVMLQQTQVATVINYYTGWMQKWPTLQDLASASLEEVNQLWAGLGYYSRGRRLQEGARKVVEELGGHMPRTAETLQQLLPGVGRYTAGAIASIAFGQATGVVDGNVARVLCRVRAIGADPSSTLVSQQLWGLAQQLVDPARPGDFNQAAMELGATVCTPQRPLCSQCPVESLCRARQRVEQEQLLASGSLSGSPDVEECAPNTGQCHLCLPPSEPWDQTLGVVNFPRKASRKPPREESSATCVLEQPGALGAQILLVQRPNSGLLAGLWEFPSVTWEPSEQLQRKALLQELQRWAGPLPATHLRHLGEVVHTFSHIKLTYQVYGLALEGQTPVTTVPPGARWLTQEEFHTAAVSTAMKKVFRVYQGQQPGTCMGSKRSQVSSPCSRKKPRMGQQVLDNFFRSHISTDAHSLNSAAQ

Variants of: B1
Experiment: 8OG:A repair function score (normalized; synonymous = 0, nonsense = -1) (normalized log-likelihood score); higher = more repair activity (WT-like);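 also: cells sorted at 72 h after reporter transfection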
Conditions: with 8OG:A DNA repair reporter (GFP) in HEK-293 MUTYH KO cells
Value type: 8OG:A repair function score

[
  {
    "Mutation label": "V142H",
    "Value type": "8OG:A repair function score",
    "Result": -0.882
  },
  {
    "Mutation label": "A194L",
    "Value type": "8OG:A repair function score",
    "Result": -0.733
  },
  {
    "Mutation label": "W374V",
    "Value type": "8OG:A repair function score",
    "Result": -0.874
  },
  {
    "Mutation label": "P331T",
    "Value type": "8OG:A repair function score",
    "Result": -0.351
  },
  {
    "Mutation label": "H407T",
    "Value type": "8OG:A repair function score",
    "Result": -0.107
  }
]

Data request: I am curious: what 8OG:A repair function score value has been reported for "R495N" ?
Data returned: -0.129

Data request: Can you look up the measured 8OG:A repair function score of "P338N" for me?
Data returned: -0.066

Data request: Field request: 8OG:A repair function score | item: "P44K"
Data returned: 0.00377

Data request: So what does the record say about 8OG:A repair function score for "L234I" ?
Data returned: -0.183

Data request: Quick one: 8OG:A repair function score of "R340M" ?
Data returned: -0.107

Data request: Dear colleague, I am looking for the recorded 8OG:A repair function score of the following variant: "K463Y"
Data returned: -0.191

Data request: What measured 8OG:A repair function score goes with "V301T" ?
Data returned: -0.284

Data request: What does the record list as 8OG:A repair function score for "R60I" ?
Data returned: -0.0738

Data request: Suppose we examine the variant "F330W" ; what 8OG:A repair function score value has been reported?
Data returned: -0.017

Data request: Given "V415Q" , state its recorded 8OG:A repair function score.
Data returned: 0.189

Data request: Bench note: what 8OG:A repair function score did "L149Q" show?
Data returned: -1.06

Data request: I would be grateful if you could share the reported 8OG:A repair function score for "D77P" .
Data returned: -0.464

Data request: Can you look up the measured 8OG:A repair function score of "H514C" for me?
Data returned: -0.00794

Data request: # input variant: "D133F" ; wanted: its 8OG:A repair function score
Data returned: -0.0791

Data request: 8OG:A repair function score lookup needed for "A99I" , thanks.
Data returned: -0.617

Data request: What does the data say about its 8OG:A repair function score? Entry: "E382T"
Data returned: 0.196

Data request: Entry "V362H" : reported 8OG:A repair function score = ?
Data returned: -0.608
